Each recorded value in this set is attributed to ChEMBL document CHEMBL4304790.

- TEST: Volume of distribution in Sprague-Dawley rat at 0.5 mg/kg, iv measured upto 24 hrs
- Format: ADME, organism-based
- CONDITION_NOTES: in vivo
TEST_READOUT: Vd (L/kg)

(I) CCc1nc(C)c(C(=O)Nc2ccc(-c3ccc(C45CCC(CC(=O)O)(CC4)OC5)cc3)cc2)o1
(II) O=C(O)CC12CCC(c3ccc(-c4ccc(Nc5nnc(C6CCC6)o5)cc4)cc3)(CC1)CO2
// compare measured Vd between I and II ; output the lower one Refer to your chosen entry by its label in the reply.
I
(I: 0.3 L/kg, II: 0.7 L/kg)

* * *

- TEST: AUC (0 to 24 hrs) in Sprague-Dawley rat at 1.5 mg/kg, po measured upto 24 hrs
- Assay type: ADME, organism-based
- Parameters: time < 24 hr, dose 1.5 mg/kg, route oral
- CONDITION_NOTES: in vivo
TEST_READOUT: AUC(0-t) at 24 h (µM·h)

(1) O=C(O)CC12CCC(c3ccc(-c4ccc(Nc5nnc(C6CCC6)o5)cc4)cc3)(CC1)CO2
(2) CCc1nc(C)c(C(=O)Nc2ccc(-c3ccc(C45CCC(CC(=O)O)(CC4)OC5)cc3)cc2)o1
Input pair: 1 , 2 . Output: entry with lower AUC(0-t) at 24 h. Kindly state the label of the option you pick.
1

* * *

- TEST: Solubility of compound at pH 6.8
- Format: physicochemical
- CONDITION_NOTES: buffer
Measured solubility, listed per entry for reference.

Reference set (2 entries):
O=C(O)C[C@H]1CC[C@H](c2ccc(-c3ccc(Nc4ccc(C(F)(F)F)nc4)cn3)cc2)CC1 ... < 5 µM
CCc1nc(C)c(C(=O)Nc2ccc(-c3ccc(C45CCC(CC(=O)O)(CC4)OC5)cc3)cc2)o1 ... 13 µM

Tell me the measured solubility of "O=C(O)CC12CCC(c3ccc(-c4ccc(Nc5nnc(C6CCC6)o5)cc4)cc3)(CC1)CO2" , please.
< 5 µM

* * *

- TEST: Oral bioavailability in Sprague-Dawley rat at 5 mg/kg measured upto 24 hrs
- Type: ADME, organism-based
- CONDITION_NOTES: in vivo
TEST_READOUT: bioavailability (%)
Number in %, nothing else.

Quick one: bioavailability of "O=C(O)C[C@H]1CC[C@H](c2ccc(-c3ccc(Nc4ccc(C(F)(F)F)nc4)cn3)cc2)CC1" ?
83

* * *

- TEST: Cmax in Sprague-Dawley rat at 5 mg/kg, po measured upto 24 hrs
- Format: ADME, organism-based
- Design: dose 5 mg/kg, route oral
- CONDITION_NOTES: in vivo
TEST_READOUT: Cmax (µM)
Please state the figure in µM; there is no need to write the unit.

What value of Cmax has been recorded for this entry: "O=C(O)C[C@H]1CC[C@H](c2ccc(-c3ccc(Nc4ccc(C(F)(F)F)nc4)cn3)cc2)CC1"
42

* * *

- TEST: Protein binding in rat plasma
- Type: ADME, cell-free
- CONDITION_NOTES: read-out: PPB (converted)
TEST_READOUT: fraction unbound

Here's what some known entries look like.
O=C(O)C[C@H]1CC[C@H](c2ccc(-c3ccc(Nc4ccc(C(F)(F)F)nc4)cn3)cc2)CC1 ... 0.003
O=C(O)CC12CCC(c3ccc(-c4ccc(Nc5nnc(C6CCC6)o5)cc4)cc3)(CC1)CO2 ... < 0.01

Here's the next entry for you.
I would be grateful if you could share the reported fraction unbound for "CCc1nc(C)c(C(=O)Nc2ccc(-c3ccc(C45CCC(CC(=O)O)(CC4)OC5)cc3)cc2)o1" .
< 0.01

* * *

- TEST: Efflux ratio of permeability across basolateral to apical side over apical to basolateral side in human Caco2 cells
- Type: ADME, cell-based
- CONDITION_NOTES: Caco-2
TEST_READOUT: efflux ratio
Write no unit; give the number alone.

# query: efflux ratio of entry "O=C(O)C[C@H]1CC[C@H](c2ccc(-c3ccc(Nc4ccc(C(F)(F)F)nc4)cn3)cc2)CC1"
0.28

* * *

- TEST: Cmax in Sprague-Dawley rat at 1.5 mg/kg, po measured upto 24 hrs
- Format: ADME, organism-based
- Set-up: dose 1.5 mg/kg, route oral
- CONDITION_NOTES: in vivo
TEST_READOUT: Cmax (µM)

(P) CCc1nc(C)c(C(=O)Nc2ccc(-c3ccc(C45CCC(CC(=O)O)(CC4)OC5)cc3)cc2)o1
(Q) O=C(O)CC12CCC(c3ccc(-c4ccc(Nc5nnc(C6CCC6)o5)cc4)cc3)(CC1)CO2
Hi! Which is lower in terms of Cmax, the first one P or the second one Q ? # reply format: chosen label
Q

* * *

- TEST: Half life in Sprague-Dawley rat at 1 mg/kg, iv measured upto 24 hrs
- Type: ADME, organism-based
- CONDITION_NOTES: in vivo
TEST_READOUT: half-life (h)
The response must be a number in h with no trailing unit.

Recorded half-life for "O=C(O)C[C@H]1CC[C@H](c2ccc(-c3ccc(Nc4ccc(C(F)(F)F)nc4)cn3)cc2)CC1" , please?
5.1

* * *

- TEST: Half life in po dosed human plasma administered as single dose
- Assay type: ADME, organism-based
TEST_READOUT: half-life (h)
State the answer as a number, implicitly in h.

Name the recorded half-life for "O=C(O)C[C@H]1CC[C@H](c2ccc(-c3ccc(Nc4ccc(C(F)(F)F)nc4)cn3)cc2)CC1" .
125

* * *

- SUBJECT_OF_TEST: Diacylglycerol O-acyltransferase 1 (Homo sapiens, UniProt O75907)
- Sequence (O75907 whole entry): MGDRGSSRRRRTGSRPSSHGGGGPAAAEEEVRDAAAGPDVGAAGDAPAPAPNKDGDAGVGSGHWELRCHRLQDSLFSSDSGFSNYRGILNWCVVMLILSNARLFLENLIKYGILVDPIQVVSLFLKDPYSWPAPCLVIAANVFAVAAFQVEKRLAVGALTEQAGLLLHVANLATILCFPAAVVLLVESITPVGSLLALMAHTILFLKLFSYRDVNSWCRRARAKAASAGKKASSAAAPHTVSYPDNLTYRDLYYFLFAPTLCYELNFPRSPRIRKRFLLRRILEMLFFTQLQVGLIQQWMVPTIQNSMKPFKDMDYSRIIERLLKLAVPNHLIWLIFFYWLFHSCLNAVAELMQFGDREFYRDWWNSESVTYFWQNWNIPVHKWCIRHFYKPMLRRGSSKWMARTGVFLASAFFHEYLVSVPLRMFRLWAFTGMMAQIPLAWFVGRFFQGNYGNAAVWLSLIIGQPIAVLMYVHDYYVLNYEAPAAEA
- TEST: Inhibition of recombinant human his-tagged DGAT1 expressed in Sf9 insect cells using oleoyl-CoA and diolein as substrates incubated for 30 mins by LC/MS/MS analysis
TEST_READOUT: IC50 (nM)
Please give a number only; it is taken to be in nM.

What does the data say about its IC50? Entry: "O=C(O)C[C@H]1CC[C@H](c2ccc(-c3ccc(Nc4ccc(C(F)(F)F)nc4)cn3)cc2)CC1"
55

* * *

- TEST: Half life in Sprague-Dawley rat at 0.5 mg/kg, iv measured upto 24 hrs
- Format: ADME, organism-based
- CONDITION_NOTES: in vivo
TEST_READOUT: half-life (h)

(1) CCc1nc(C)c(C(=O)Nc2ccc(-c3ccc(C45CCC(CC(=O)O)(CC4)OC5)cc3)cc2)o1
(2) O=C(O)CC12CCC(c3ccc(-c4ccc(Nc5nnc(C6CCC6)o5)cc4)cc3)(CC1)CO2
Given 1 and given 2 , which shows the smaller recorded half-life? Selection: enter the item's label.
2
(2: 3.2 h, 1: 20 h)

* * *

- TEST: Photo irritation factor, ratio of IC50 for cytotoxicity against BALB/c mouse 3T3 cells pretreated for 1 hr prior to 50 mins incubation in dark conditions followed by further incubation in DMEM medium for 20 to 22 hrs to IC50 for cytotoxicity against BALB/c mouse 3T3 cells pretreated for 1 hr prior to irradiation with UVA for 50 mins followed by further in DMEM medium incubation for 20 to 22 hrs …
- Type: cell-based, NIH3T3
- CONDITION_NOTES: BALB/c 3T3 cells
compounds and their reported selectivity ratio
Output: the number by itself.

Solved entries (count: 2):
CCc1nc(C)c(C(=O)Nc2ccc(-c3ccc([C@H]4CC[C@H](CC(=O)O)CC4)cc3)nc2)o1 ... 1
O=C(O)C[C@H]1CC[C@H](c2ccc(-c3ccc(Nc4ccc(C(F)(F)F)nc4)cn3)cc2)CC1 ... 56

selectivity ratio for "COc1ccc2nc(Nc3ccc(-c4ccc([C@H]5CC[C@H](CC(=O)O)CC5)cc4)nc3)oc2c1" ?
17

* * *

- TEST: AUC (0 to 24 hrs) in Sprague-Dawley rat at 1 mg/kg, iv measured upto 24 hrs
- Assay type: ADME, organism-based
- Parameters: dose 1 mg/kg, time < 24 hr, route intravenous
- CONDITION_NOTES: in vivo
TEST_READOUT: AUC(0-t) at 24 h (µM·h)
Report as a plain number; the unit µM·h is understood.

# get_value(readout='AUC(0-t) at 24 h', item= "O=C(O)C[C@H]1CC[C@H](c2ccc(-c3ccc(Nc4ccc(C(F)(F)F)nc4)cn3)cc2)CC1" )
46

* * *

- TEST: Oral bioavailability in Sprague-Dawley rat at 1.5 mg/kg measured upto 24 hrs
- Format: ADME, organism-based
- CONDITION_NOTES: in vivo
bioavailability values for the compounds below.

CCc1nc(C)c(C(=O)Nc2ccc(-c3ccc(C45CCC(CC(=O)O)(CC4)OC5)cc3)cc2)o1 ... > 100%

Which bioavailability reading was recorded for the compound "O=C(O)CC12CCC(c3ccc(-c4ccc(Nc5nnc(C6CCC6)o5)cc4)cc3)(CC1)CO2" ?
> 100%

* * *

- TEST: Clearance in Sprague-Dawley rat at 0.5 mg/kg, iv measured upto 24 hrs
- Format: ADME, organism-based
- CONDITION_NOTES: in vivo
TEST_READOUT: clearance (mL/min/kg)

(A) O=C(O)CC12CCC(c3ccc(-c4ccc(Nc5nnc(C6CCC6)o5)cc4)cc3)(CC1)CO2
(B) CCc1nc(C)c(C(=O)Nc2ccc(-c3ccc(C45CCC(CC(=O)O)(CC4)OC5)cc3)cc2)o1
Between the two listed entries A and B , which has its clearance at the higher number? Label of pick, please.
A
(A: 3.5 mL/min/kg, B: 0.2 mL/min/kg)
